Read-out record for Prothrombin (Homo sapiens, UniProt P00734): pKi
FYI, pKi means -log10 of a concentration in mol per litre.

Some solved entries appear below for comparison.
>  <Compound>
CCOC(=O)CC(CCc1cccc(C(=N)N)c1)c1ccc(C(=N)N)cc1 (stereo not given)

>  <Measurement Type>
pKi

>  <Observed>
5.46

$$$$
>  <Compound>
COC(=O)CC(CCc1ccc(C(=N)N)cc1)c1cccc(C(=N)N)c1 (stereo not given)

>  <Measurement Type>
pKi

>  <Observed>
5.92

$$$$
>  <Compound>
CNC(=O)CC(CCc1ccc(C(=N)N)cc1)c1cccc(C(=N)N)c1 (stereo not given)

>  <Measurement Type>
pKi

>  <Observed>
5.10

$$$$

Here is another compound to look at.
// lookup pKi for CCOC(=O)CC(CCc1ccc(C(=N)N)cc1)c1ccc(C(=N)N)cc1 (stereo not given)
5.92

###

Consider the following Ki values measured on Serine protease 1 (Homo sapiens, UniProt P07477).
Sequence (P07477 whole entry): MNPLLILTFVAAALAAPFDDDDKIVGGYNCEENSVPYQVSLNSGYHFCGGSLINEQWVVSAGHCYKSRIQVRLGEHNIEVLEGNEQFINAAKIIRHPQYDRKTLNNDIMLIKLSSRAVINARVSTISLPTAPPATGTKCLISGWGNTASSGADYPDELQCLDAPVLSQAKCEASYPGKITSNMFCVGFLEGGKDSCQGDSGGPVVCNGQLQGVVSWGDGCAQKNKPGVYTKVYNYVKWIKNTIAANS

Examples from the recorded data:
>  <Molecule>
CNC(=O)CC(CCc1ccc(C(=N)N)cc1)c1cccc(C(=N)N)c1 (stereo unspecified)

>  <Test Target>
Serine protease 1 (Homo sapiens, UniProt P07477)

>  <Observed>
820 nM

$$$$
>  <Molecule>
CC(C)OC(=O)CC(CCc1ccc(C(=N)N)cc1)c1cccc(C(=N)N)c1 (stereo unspecified)

>  <Test Target>
Serine protease 1 (Homo sapiens, UniProt P07477)

>  <Observed>
140 nM

$$$$
>  <Molecule>
N=C(N)c1ccc(CCC(CC(=O)O)c2cccc(C(=N)N)c2)cc1 (stereo unspecified)

>  <Test Target>
Serine protease 1 (Homo sapiens, UniProt P07477)

>  <Observed>
> 1200 nM

$$$$
>  <Molecule>
COC(=O)CC(CCc1ccc(N)cc1)c1cccc(C(=N)N)c1 (stereo unspecified)

>  <Test Target>
Serine protease 1 (Homo sapiens, UniProt P07477)

>  <Observed>
1200 nM

$$$$
>  <Molecule>
COC(=O)CC(CCc1ccc(N=C(N)N)cc1)c1cccc(C(=N)N)c1 (stereo unspecified)

>  <Test Target>
Serine protease 1 (Homo sapiens, UniProt P07477)

>  <Observed>
96 nM

$$$$

Shifting focus to the molecule that follows.
If you can, please state the reported Ki value of COC(=O)CC(CCCCc1ccc(N=C(N)N)cc1)c1cccc(C(=N)N)c1 (stereo unspecified) .
760 nM

###

- Test Target: Prothrombin (Homo sapiens, UniProt P00734)
Measurement Type: Ki (µM)
Write the value in µM as a bare number.

>  <Compound>
N=C(N)c1ccc(CCC(CC(=O)N2CCCC2)c2cccc(C(=N)N)c2)cc1 (centres undefined)

>  <Ki [µM]>
2.8

$$$$
>  <Compound>
CCOC(=O)CC(CCc1ccc(C(=N)N)cc1)c1ccccc1 (centres undefined)

>  <Ki [µM]>
6.2

$$$$
>  <Compound>
COC(=O)CC(CCc1ccc(N)cc1)c1cccc(C(=N)N)c1 (centres undefined)

>  <Ki [µM]>
7.7

$$$$

The record that follows has no Ki shown yet.
Provide value of Ki for this record tested with Prothrombin (Homo sapiens, UniProt P00734): COC(=O)CC(CCc1cccc(C(=N)N)c1)c1cccc(C(=N)N)c1 (centres undefined)
8.5

###

Measurement record for Coagulation factor X (Homo sapiens); quantity recorded: pKi.
Please note pKi is a logarithmic value: minus log10 of concentration in mol/L. Answer with that number alone.

>  <Molecule>
COC(=O)CC(CCCCc1ccc(N=C(N)N)cc1)c1cccc(C(=N)N)c1 (configuration not stated)

>  <pKi>
7.24

$$$$

Any idea what pKi came out for CNC(=O)CC(CCc1ccc(C(=N)N)cc1)c1cccc(C(=N)N)c1 (configuration not stated) on Coagulation factor X (Homo sapiens)?
6.03

Requested read-out pKi, target or system Coagulation factor X (Homo sapiens), entry COC(=O)CC(CCc1ccc(N)cc1)c1cccc(C(=N)N)c1 (configuration not stated)
5.30

# returns recorded pKi (system: Coagulation factor X (Homo sapiens)) for CONC(=O)CC(CCc1ccc(C(=N)N)cc1)c1cccc(C(=N)N)c1 (configuration not stated)
# Sequence (P00742 41-179 limits assumed): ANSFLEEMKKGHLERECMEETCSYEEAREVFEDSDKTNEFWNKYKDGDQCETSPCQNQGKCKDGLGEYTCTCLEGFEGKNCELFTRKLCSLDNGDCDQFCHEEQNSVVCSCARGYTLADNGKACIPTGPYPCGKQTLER
# Sequence (P00742 235-488 limits assumed): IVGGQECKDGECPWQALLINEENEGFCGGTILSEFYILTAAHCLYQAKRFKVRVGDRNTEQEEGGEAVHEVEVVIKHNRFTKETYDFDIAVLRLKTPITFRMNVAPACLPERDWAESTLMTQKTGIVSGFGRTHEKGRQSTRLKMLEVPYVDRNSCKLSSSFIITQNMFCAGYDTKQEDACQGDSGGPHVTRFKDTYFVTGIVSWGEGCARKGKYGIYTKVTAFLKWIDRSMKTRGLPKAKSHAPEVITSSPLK
5.62

Lookup: pKi / Coagulation factor X (Homo sapiens) / COC(=O)CC(CCc1ccc(C(=O)OC)cc1)c1cccc(C(=N)N)c1 (configuration not stated)
5.55

Find the measured pKi: item N=C(N)c1ccc(CCC(=O)c2cccc(C(=N)N)c2)cc1 , target or system Coagulation factor X (Homo sapiens).
5.29
